Where these numbers come from: paper PMC9482650

Tested on: T1, LIN7B, Q9HAP6
T1 sequence (Q9HAP6 88-185, limits assumed, looked up): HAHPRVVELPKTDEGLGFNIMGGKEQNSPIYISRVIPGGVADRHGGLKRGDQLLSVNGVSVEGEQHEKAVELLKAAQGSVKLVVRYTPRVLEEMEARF
Assay notes: holdup assay
Set-up: key: below the threshold = too weak to quantify, mostly under pKd 3.1 to 4
Test conditions: plain residues with an end cap or a label only (N-terminal biotin on a linker: ttds)
Parameter: pKd
Lab note: jot the number down without any unit.

Guide cases for pKd, answers given:
SSLQSLETSV [ATP2B4, P23634] ... 4.3
KKYVDAETSL [SLC4A7, Q9Y6M7] ... 3.53

Let us move to another entry and its pKd.
Requested read-out: pKd. Entry: SKPTRRETEV [HPV35-E6, P27228]
3.49
